tested_system: KRAS WT (Homo sapiens (Human), UniProt P01116+P62937)
Sequence (P01116 other isoform, or with tags, fused parts or gaps): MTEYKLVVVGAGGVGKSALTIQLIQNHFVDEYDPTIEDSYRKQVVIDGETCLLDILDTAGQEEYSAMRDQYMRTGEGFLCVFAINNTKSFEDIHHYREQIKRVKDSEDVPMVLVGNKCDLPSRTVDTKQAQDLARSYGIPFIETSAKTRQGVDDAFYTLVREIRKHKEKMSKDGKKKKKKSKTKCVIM
Sequence (P62937 whole entry): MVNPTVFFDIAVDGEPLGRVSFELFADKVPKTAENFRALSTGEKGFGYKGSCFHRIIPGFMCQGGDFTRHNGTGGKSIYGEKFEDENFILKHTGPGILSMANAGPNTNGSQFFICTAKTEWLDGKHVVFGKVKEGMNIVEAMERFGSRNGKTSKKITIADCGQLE
assay_text: Ras-Raf disruption/FRET/MOA assay (BRAF RBD, Cyclophilin A)
Format: biochemical
stated_conditions: read-out: KRAS WT FRET data IC50
Give IC50 for every item shown.

IN: Specify IC50 for CCn1c(-c2cccnc2[C@H](C)OC)c2c3cc(ccc31)-c1cc(O)cc(c1)C[C@H](NC(=O)[C@H](C(C)C)N(C)C(=O)[C@H]1CC[C@@H](C(N)=O)O1)C(=O)N1CCC[C@H](N1)C(=O)OCC(C)(C)C2 , system KRAS WT (Homo sapiens (Human), UniProt P01116+P62937).
OUT: 100 to 1000 nM

IN: Specify IC50 for CCn1c(-c2cccnc2[C@H](C)OC)c2c3cc(ccc31)-c1cccc(c1)C[C@H](NC(=O)[C@H](C(C)C)N(C)C(=O)[C@@H]1CCN(C3COC3)C1)C(=O)N1CCC[C@H](N1)C(=O)OCC(C)(C)C2 , system KRAS WT (Homo sapiens (Human), UniProt P01116+P62937).
OUT: 1000 to 10000 nM

IN: Specify IC50 for CCn1c(-c2cccnc2[C@H](C)OC)c2c3cc(ccc31)-c1cc(O)cc(c1)C[C@H](NC(=O)[C@H](C(C)C)N(C)C(=O)C1CCC1)C(=O)N1CCC[C@H](N1)C(=O)OCC(C)(C)C2 , system KRAS WT (Homo sapiens (Human), UniProt P01116+P62937).
OUT: 10 to 100 nM

IN: Specify IC50 for CCn1c(-c2cccnc2[C@H](C)OC)c2c3cc(ccc31)-c1csc(n1)C[C@H](NC(=O)[C@H](C(C)C)N(C)C(=O)N(C)CCc1ccncc1)C(=O)N1CCC[C@H](N1)C(=O)OCC(C)(C)C2 , system KRAS WT (Homo sapiens (Human), UniProt P01116+P62937).
OUT: 100 to 1000 nM
